experiment: basal 3T3-L1 adipocyte mitochondrial potential changes, profiling panel, cell-based, JC-1 fluorescence, 3T3-L1 adipocytes, 24 h, 100 nL compound (AID 1168); details: JC-1 mitochondrial fluorescence, higher = more signal, called active from +8 up or from −8 down; also: test concentration not given here
Please use the following z-score ranges when assigning a class: band A: < -0.6; band B: ≥ -0.6 and < 0.7; band C: ≥ 0.7

| COMPOUND | QUALITATIVE LABEL |
| --- | --- |
| C[C@@H]1ON(c2ccc(I)cc2)[C@H](c2ccc(OC(=O)OC(C)(C)C)cc2)[C@H]1C(=O)N1C(=O)OC[C@H]1Cc1ccccc1 | band B |
| Cc1ccccc1C(O)C1C=CC2C(=O)N(c3ccccc3)C(=O)C2N1Nc1ccc([N+](=O)[O-])cc1 (configuration not stated) | band A |
| CC(C)C[C@@H]1NC(=O)[C@H]2C[C@@H](C(=O)NCCCCCN)[C@@H](c3cccc(OCCO)c3)N2C1=O | band C |
| COCC(=C=CC[C@H](O)c1cccc(OCCO)c1)C[C@H](O)COCc1ccccc1 | band B |
| COCCCNC(=O)[C@@]1(Sc2ccc(C)cc2)CC(=O)N(C(C)C)[C@@H]1c1ccc(CO)cc1I | band B |
| COc1ccc(C(=O)Nc2cccc(CN3C(=O)[C@@]4(O[C@@H](CC(=O)N(CCO)Cc5ccccc5)[C@H]([Si](C)(C)c5ccc(OC)cc5)[C@H]4C)c4ccccc43)c2)cc1 | band C |
| COCCOC(=O)N1C(=O)[C@@]2(c3cc(C#CC4(O)CCCCCC4)ccc31)[C@H](C(=O)N1CCN(c3ncccn3)CC1)[C@H]1C(=O)O[C@H](c3ccccc3)[C@H](c3ccccc3)N1[C@@H]2c1ccccc1OCCO | band C |
| C=CCC(OC(C)=O)[C@@H]1[C@@H](N(Cc2cccc3ccccc23)C(=O)c2ccc(-c3ccccc3)cc2)c2cc(OCCCO)ccc2N1C(=O)c1ccc(-c2ccccc2)cc1 (some centres not stated) | band A |
| COc1ccc([Si](C)(C)[C@H]2[C@H](CC(=O)N3CCC[C@H]3CO)O[C@@]3(C(=O)N(Cc4ccc(N5CCC5=O)cc4)c4ccccc43)[C@@H]2C)cc1 | band B |
| CN1C(=O)C2C(C1=O)C1C=C(CCCO)C2C(c2cccs2)N1Cc1cc2c(cc1Br)OCO2 (configuration not stated) | band A |
| [N-]=[N+]=NCc1ccccc1C[C@]1(C(=O)N2CCOCC2)COC(c2ccc(OCCCO)cc2)=N1 | band B |
